System: HEK-293T
Assay: Multiplex assay against HEK293T
Format: toxicity, cell-based
Settings: human, 48 h, 10 µM, compound concentration 10 uM, replicate 1
MEASURE_NAME: Total Cell Count
Could you keep your reply to the number by itself?

Incoming: Request the reported Total Cell Count associated with COc1cc2nc(N3CCN(C(=O)c4ccco4)CC3)nc(N)c2cc1OC.Cl [PRAZOSIN HYDROCHLORIDE]
Outgoing: 693

Incoming: Can you look up the measured Total Cell Count of CN1CCN2c3ccccc3Cc3ccccc3C2C1.Cl (stereo not drawn) [MIANSERIN HYDROCHLORIDE] for me?
Outgoing: 702

Incoming: Form field: reported Total Cell Count of "CCCCC[C@H](O)/C=C/[C@H]1[C@H](O)CC(=O)[C@@H]1CCCCCCC(=O)O"
Outgoing: 685

* * *

Test system: HEK-293T
Assay: Multiplex assay against HEK293T
Assay type: toxicity, cell-based
Conditions: human, 12 h, 10 µM, compound concentration 10 uM, replicate 1
MEASURE_NAME: Population Apoptotic (%)
Write down the numeric answer in % and omit the unit.

Incoming: // fetch HEK-293T Population Apoptotic (%) for "COC(c1ccccc1)(c1ccccc1)[C@H](Oc1nc(C)cc(C)n1)C(=O)O"
Outgoing: 33

Incoming: Param readout= Population Apoptotic (%); system= HEK-293T; entry= O=C(NCCNCC(O)COc1ccc(O)cc1)N1CCOCC1.O=C(NCCNCC(O)COc1ccc(O)cc1)N1CCOCC1.O=C(O)/C=C/C(=O)O (stereo unspecified) [XAMOTEROL FUMARATE] ; returns value.
Outgoing: 35

Incoming: Find the measured Population Apoptotic (%): item Cc1ccc(OCC(O)C(C)NC(C)C)c2c1CCC2.Cl (stereo unspecified) , target or system HEK-293T.
Outgoing: 43

Incoming: Form: Entry = "COc1cc2nc(N3CCN(C(=O)COc4c(OC)cccc4C(C)C)CC3)nc(N)c2cc1OC.Cl.Cl" | System = HEK-293T | Population Apoptotic (%) = ____
Outgoing: 52

Incoming: Request: Population Apoptotic (%), test system HEK-293T, entry "Nc1nc(-c2ccco2)c2cnn(Cc3ccccc3F)c2n1"
Outgoing: 33

Incoming: Identify the measured Population Apoptotic (%) of "CCc1nn2c(C)cc(C)nc2c1Cc1ccc(-c2nnc(C3CCNCC3)o2)cc1" for HEK-293T.
Outgoing: 63

* * *

Please go through the items and note down their Population Apoptotic (%).
System: U2OS
Experiment: Multiplex assay against U2OS
Format: toxicity, cell-based
Details: human, 48 h, 1 µM, compound concentration 1 uM, replicate 2
Return type: number; implicit unit %.

Incoming: Query: Population Apoptotic (%); subject: "COc1c(Nc2ccc(S(C)(=O)=O)nc2C)ncnc1OC1CCN(C(=O)OC(C)C)CC1"
Outgoing: 81

Incoming: For the molecule "COc1ccc2c(c1OCc1ccccc1)C[C@@H](C(=O)O)N(C(=O)C(c1ccccc1)c1ccccc1)C2" , what Population Apoptotic (%) is on record?
Outgoing: 78

Incoming: Look up Population Apoptotic (%) for this molecule: "CN1CCC(C(=O)c2cccc(NC(=O)c3c(F)cc(F)cc3F)n2)CC1"
Outgoing: 89

Incoming: Entry "O=C(Nc1cc(-c2ccccc2)nn1-c1ccccc1F)c1ccc([N+](=O)[O-])cc1" has what Population Apoptotic (%)?
Outgoing: 90

Incoming: Any idea what Population Apoptotic (%) was measured for O=C(O)CCC/C=C\CC1C(O)CC(O)C1/C=C/C(O)COc1cccc(Cl)c1 (centres undefined) ?
Outgoing: 81

Incoming: Reported Population Apoptotic (%) for Cl.Cl.OCCOCCN1CCN(C(c2ccccc2)c2ccc(Cl)cc2)CC1 (centres undefined) [HYDROXYZINE HYDROCHLORIDE] : what is it?
Outgoing: 90

Incoming: Request the reported Population Apoptotic (%) associated with "COc1cc(Nc2ncc3c(n2)-c2ccc(Cl)cc2C(c2c(F)cccc2OC)=NC3)ccc1C(=O)O"
Outgoing: 78

Incoming: Please report the recorded Population Apoptotic (%) for O=C(NCCNCC(O)COc1ccc(O)cc1)N1CCOCC1.O=C(NCCNCC(O)COc1ccc(O)cc1)N1CCOCC1.O=C(O)/C=C/C(=O)O (centres undefined) [XAMOTEROL FUMARATE] .
Outgoing: 91

Incoming: Which Population Apoptotic (%) is reported for this molecule? CN1C[C@H](C(=O)N[C@]2(C)O[C@@]3(O)[C@@H]4CCCN4C(=O)[C@H](Cc4ccccc4)N3C2=O)C[C@@H]2c3cccc4[nH]cc(c34)C[C@H]21.CS(=O)(=O)O [DIHYDROERGOTAMINE MESYLATE]
Outgoing: 90

Ref: ChEMBL document CHEMBL5058577
